System: Serine/threonine-protein kinase pim-1 (Homo sapiens) | Read-out: pKi | Origin: multiple publications
// pKi: -log10(molar conc.)

1) N[C@@H]1CCCN(c2cccc(-c3n[nH]c4cnc(-c5cccnc5)cc34)n2)C1    10.57
2) C#Cc1ccc(-c2n[nH]c3cnc(-c4cccnc4)cc23)nc1N1CCC[C@H](N)C1    11.00
3) CN1CCN(c2cc3c(-c4ccccc4)n[nH]c3cn2)CC1=O    6.18
4) CCCOc1ccc(F)c(-c2nc(C(=O)Nc3cnccc3N3CCC[C@H](N)C3)c(N)s2)c1F    10.40
5) CCn1cc(-c2cc3c(-c4cccc(N5CCN(C(C)=O)CC5)n4)n[nH]c3cn2)cn1    9.97
6) N[C@@H]1CCCN(c2nc(-c3n[nH]c4cnc(-c5cccnc5)cc34)ccc2Br)CC1    10.55
7) Cc1ccc(F)c(-c2nc(C(=O)Nc3cnn(C)c3N3CC[C@@H](N)CC(F)(F)C3)c(N)s2)c1    10.74
8) Cn1cc(-c2n[nH]c3cnc(-c4cncc(N5CCC(N)CC5)n4)cc23)cn1    10.02

Prompt: Record "Cn1cc(-c2cc3c(-c4ccc(Br)c(N5CC(N6CCS(=O)(=O)CC6)C5)n4)n[nH]c3cn2)cn1" : what is its pKi with Serine/threonine-protein kinase pim-1 (Homo sapiens)?
Completion: 8.80

Prompt: Record "c1cncc(-c2cc3c(C4CCCC4)n[nH]c3cn2)c1" : what is its pKi with Serine/threonine-protein kinase pim-1 (Homo sapiens)?
Completion: 7.37

Prompt: Record "Cn1ncc(NC(=O)c2csc(-c3cccc4cccnc34)n2)c1[C@@H]1CC[C@@H](N)[C@H](F)CO1" : what is its pKi with Serine/threonine-protein kinase pim-1 (Homo sapiens)?
Completion: 8.75

Prompt: Record "Cn1cc(-c2cc3c(-c4cccc(NCC5CCNCC5)n4)n[nH]c3cn2)cn1" : what is its pKi with Serine/threonine-protein kinase pim-1 (Homo sapiens)?
Completion: 9.37

Prompt: Record "CCn1cc(-c2cc3c(-c4cccc(N5CCN(C6COC6)CC5)n4)n[nH]c3cn2)cn1" : what is its pKi with Serine/threonine-protein kinase pim-1 (Homo sapiens)?
Completion: 9.51

Prompt: Record "C[C@H](F)c1cc(F)c(-c2nc(C(=O)Nc3cnn(C)c3[C@@H]3CC[C@@H](N)[C@H](F)CO3)cs2)c(F)c1" : what is its pKi with Serine/threonine-protein kinase pim-1 (Homo sapiens)?
Completion: 11.70
